The entries below are paired with their reported % Red (F): percent reduction in the total number of spontaneous contractions.
# Tested on: hypertrophied bladder (detrussor) smooth muscle
# protocol notes: Inhibition of spontaneous contractions in vivo (conscious female rats with hypertrophied bladders, cystometry)
# Set-up: species or system Female Sprague-Dawley rats
# test context: 3 mg/kg p.o.; hypertrophied rat bladder model
measurement kind: % Red (F): percent reduction in the total number of spontaneous contractions

[[record]]
compound = "CC(Nc1c(NCc2ccc(C#N)cc2Cl)c(=O)c1=O)C(C)(C)C (centres unmarked) [Example 6]"
assay_system = "hypertrophied bladder (detrussor) smooth muscle"
experimental_result = "-51 ± 6%"

[[record]]
compound = "Cc1ccc(CNc2c(NC(C)(C)C)c(=O)c2=O)c(C)c1 [Example 8]"
assay_system = "hypertrophied bladder (detrussor) smooth muscle"
experimental_result = "-38 ± 7%"

[[record]]
compound = "Cc1cc(Br)cc(C)c1CNc1c(NC(C)(C)C)c(=O)c1=O [Example 36]"
assay_system = "hypertrophied bladder (detrussor) smooth muscle"
experimental_result = "-83 ± 9%"

[[record]]
compound = "C[C@@H](Nc1c(NCc2ccc(C#N)cc2Cl)c(=O)c1=O)C(C)(C)C [Example 30]"
assay_system = "hypertrophied bladder (detrussor) smooth muscle"
experimental_result = "-68 ± 10%"

[[record]]
compound = "CCC(C)(C)Nc1c(NCc2ccc(C#N)cc2Cl)c(=O)c1=O [Example 76]"
assay_system = "hypertrophied bladder (detrussor) smooth muscle"
experimental_result = "-57 ± 12%"


###

# Test system: Isolated Rat Bladder Strips
# protocol notes: Inhibition of contractions in isolated rat bladder strips (KCl-enhanced contractile activity; smooth muscle relaxation)
# Format: cell-based, Sprague-Dawley rats
# test context: Rattus norvegicus, 0.5 h; read-out: Percent contraction at 30 μM (C)
Recorded measurements of percent contraction at 30 µM, one per entry
measurement kind: percent contraction at 30 µM (%)

[[record]]
compound = "CCCC(=O)N(Cc1ccc(C#N)cc1Cl)c1c(NC(C)(C)CC)c(=O)c1=O [Example 78]"
experimental_result = 28.5

[[record]]
compound = "Cc1cc(C)c(CNc2c(N[C@H](C)C(C)(C)C)c(=O)c2=O)c(Cl)c1 [Example 38]"
experimental_result = 200

[[record]]
compound = "COc1cccc(C)c1CNc1c(N[C@H](C)C(C)(C)C)c(=O)c1=O [Example 57]"
experimental_result = 160

[[record]]
compound = "CCC(CC)Nc1c(NCc2ccc(OC)c(OC)c2)c(=O)c1=O [Example 14]"
experimental_result = 54

[[record]]
compound = "Cc1cccc(C)c1CNc1c(N[C@H](C)C(C)(C)C)c(=O)c1=O [Example 51]"
experimental_result = 22

